Just for reference, paper PMC12029836 is where these values come from.

Reported Inhibition of the Lepidium sativum seeds germination (ISG, %) values are given for each entry in this list.
# Tested on: Lepidium sativum L. seeds
# condition_details: 2.00% (w/w) compound in the medium, 24 h incubation, mean(±SD), n = 3

Known Inhibition of the Lepidium sativum seeds germination (ISG, %) results, listed for orientation:
{"compound": "N[C@@H](Cc1ccccc1)C(=O)O.OCCN(CCO)CCO [[TEA][Phe]]", "tgt": "Lepidium sativum L. seeds", "meas_value": "10.5(±0.8) %"}
{"compound": "NC(CCC(=O)O)C(=O)O.OCCN(CCO)CCO.OCCN(CCO)CCO (stereo not shown) [[TEA]2[Glu]]", "tgt": "Lepidium sativum L. seeds", "meas_value": "22.2(±2.2) %"}

Asked: Find the recorded Inhibition of the Lepidium sativum seeds germination (ISG, %) belonging to N[C@@H](CC(=O)O)C(=O)O.OCCN(CCO)CCO.OCCN(CCO)CCO [[TEA]2[Asp]] and report it.
Given back: 19.1(±1.3) %

Asked: Find the recorded Inhibition of the Lepidium sativum seeds germination (ISG, %) belonging to N=C(N)NCCC[C@H](N)C(=O)O.OCCN(CCO)CCO [[TEA][Arg]] and report it.
Given back: 25.5(±2.1) %

Asked: Find the recorded Inhibition of the Lepidium sativum seeds germination (ISG, %) belonging to CC(O)C(N)C(=O)O.OCCN(CCO)CCO [[TEA][Thr]] and report it.
Given back: 21.7(±0.8) %

Asked: Find the recorded Inhibition of the Lepidium sativum seeds germination (ISG, %) belonging to NCCCC[C@H](N)C(=O)O.OCCN(CCO)CCO [[TEA][Lys]] and report it.
Given back: 11.5%

Asked: Find the recorded Inhibition of the Lepidium sativum seeds germination (ISG, %) belonging to O=C(O)[C@@H]1CCCN1.OCCN(CCO)CCO [[TEA][Pro]] and report it.
Given back: 29.6(±0.9) %

Asked: Find the recorded Inhibition of the Lepidium sativum seeds germination (ISG, %) belonging to N[C@@H](CC(=O)O)C(=O)O.OCCN(CCO)CCO [[TEA][Asp]] and report it.
Given back: 0.0(±0.0) %

Asked: Find the recorded Inhibition of the Lepidium sativum seeds germination (ISG, %) belonging to N[C@@H](Cc1c[nH]cn1)C(=O)O.OCCN(CCO)CCO [[TEA][His]] and report it.
Given back: 14.8(±0.9) %

Asked: Find the recorded Inhibition of the Lepidium sativum seeds germination (ISG, %) belonging to CC(N)C(=O)O.OCCN(CCO)CCO [[TEA][Ala]] and report it.
Given back: 17.7(±0.8) %

====

# Tested on: L929 fibroblasts
# assay_summary: Mammalian cell cytotoxicity screening, resazurin viability
# Type: cell-based, mouse
# condition_details: 48h exposure
value_kind: ED80 (%)
Write down the numeric answer in % and omit the unit.

{"compound": "O=C(O)[C@@H]1CCCN1.OCCN(CCO)CCO [[TEA][Pro]]", "value_kind": "ED80", "endpoint_unit": "%", "meas_value": 1.00}

Asked: Form entry - test system: L929 fibroblasts; read-out: ED80; compound: N[C@@H](CC(=O)O)C(=O)O.OCCN(CCO)CCO [[TEA][Asp]]
Given back: 0.71

====

Reported Inhibition of the Lepidium sativum seeds germination (ISG, %) values are given for each entry in this list.
# System: Lepidium sativum L. seeds
# condition_details: 3.00% (w/w) compound in the medium, 24 h incubation, mean(±SD), n = 3

Known Inhibition of the Lepidium sativum seeds germination (ISG, %) results, listed for orientation:
{"molecule": "NC(=O)CCC(N)C(=O)O.OCCN(CCO)CCO (stereo not shown) [[TEA][Gln]]", "meas_value": "53.8(±2.5) %"}
{"molecule": "CCC(C)C(N)C(=O)O.OCCN(CCO)CCO [[TEA][Ile]]", "meas_value": "26.8(±0,9) %"}
{"molecule": "N[C@@H](CC(=O)O)C(=O)O.OCCN(CCO)CCO [[TEA][Asp]]", "meas_value": "3.5%"}
{"molecule": "CC(N)C(=O)O.OCCN(CCO)CCO [[TEA][Ala]]", "meas_value": "64.7(±0.8) %"}
{"molecule": "NC(=O)C[C@H](N)C(=O)O.OCCN(CCO)CCO [[TEA][Asn]]", "meas_value": "46.3(±0.9) %"}
{"molecule": "NCCCC[C@H](N)C(=O)O.OCCN(CCO)CCO [[TEA][Lys]]", "meas_value": "38.5%"}
{"molecule": "N=C(N)NCCC[C@H](N)C(=O)O.OCCN(CCO)CCO [[TEA][Arg]]", "meas_value": "32.7%"}
{"molecule": "NCC(=O)O.OCCN(CCO)CCO [[TEA][Gly]]", "meas_value": "63.8%"}
{"molecule": "CC(C)[C@H](N)C(=O)O.OCCN(CCO)CCO [[TEA][Val]]", "meas_value": "28.3(±0.5) %"}
{"molecule": "N[C@@H](Cc1c[nH]c2ccccc12)C(=O)O.OCCN(CCO)CCO [[TEA][Trp]]", "meas_value": "53.7%"}

Asked: Find the recorded Inhibition of the Lepidium sativum seeds germination (ISG, %) belonging to N[C@@H](Cc1c[nH]cn1)C(=O)O.OCCN(CCO)CCO [[TEA][His]] and report it.
Given back: 25.9(±1.2) %

Asked: Find the recorded Inhibition of the Lepidium sativum seeds germination (ISG, %) belonging to O=C(O)[C@@H]1CCCN1.OCCN(CCO)CCO [[TEA][Pro]] and report it.
Given back: 40.7(±0.5) %

Asked: Find the recorded Inhibition of the Lepidium sativum seeds germination (ISG, %) belonging to N[C@@H](CC(=O)O)C(=O)O.OCCN(CCO)CCO.OCCN(CCO)CCO [[TEA]2[Asp]] and report it.
Given back: 20.0(±0.5) %
